System: DU-145
Assay: NCI tumour cell line growth inhibition, 48 h
Calls of active or inactive are those of the source. No stated cut-off is given here; in the data, active = GI50 up to about 1.1 µM and inactive = higher.
Assignment: determine reported GI50 for the given compounds.

Query :: // output GI50; input O=c1ccn(CC2(CO)CCCC2)c(=O)[nH]1 ; system DU-145
Result :: > 100 µM (inactive)

Query :: // output GI50; input Cc1ccc(NC(=O)CC(=O)n2nc(C)c(/N=N/c3ccc(S(=O)(=O)CCOS(=O)(=O)O)cc3)c2C)cc1 ; system DU-145
Result :: > 100 µM (inactive)

Query :: // output GI50; input COC(CN(C)C(=S)Nc1cccc2ccccc12)OC ; system DU-145
Result :: > 10 µM (inactive)

Query :: // output GI50; input CCOc1ccc(NCC2CC/C(=C\c3ccc(O)cc3)C2=O)cc1 (centres undefined) ; system DU-145
Result :: 25.7 µM (inactive)
